Recorded measurements of pIC50, one per entry
- test.system: PCSK9 (Homo sapiens (Human), UniProt Q8NBP7)
- Sequence (Q8NBP7 153-692): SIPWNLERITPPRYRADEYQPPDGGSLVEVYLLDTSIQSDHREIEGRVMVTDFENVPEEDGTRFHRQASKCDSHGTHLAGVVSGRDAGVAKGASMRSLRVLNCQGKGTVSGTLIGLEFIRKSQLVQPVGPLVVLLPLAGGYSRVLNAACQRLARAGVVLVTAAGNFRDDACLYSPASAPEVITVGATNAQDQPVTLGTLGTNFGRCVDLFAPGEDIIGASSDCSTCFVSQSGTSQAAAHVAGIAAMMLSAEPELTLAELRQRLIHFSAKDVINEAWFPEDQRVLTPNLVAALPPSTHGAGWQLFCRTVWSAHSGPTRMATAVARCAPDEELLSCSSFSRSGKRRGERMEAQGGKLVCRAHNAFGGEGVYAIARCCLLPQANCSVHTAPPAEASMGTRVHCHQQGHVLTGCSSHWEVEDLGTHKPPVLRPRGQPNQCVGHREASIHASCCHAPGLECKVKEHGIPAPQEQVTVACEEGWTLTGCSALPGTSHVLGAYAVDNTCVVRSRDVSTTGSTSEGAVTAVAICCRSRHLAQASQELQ
- protocol.details: PCSK9 Alexa FRET Standard assay (displacement of AlexaFluor647 tagged cyclic peptide Reagent A)
- Format: binding
- applied.conditions: PCSK9 Alexa FRET Standard assay, 0.5 nM PCSK9, 20 nM AF cyclic peptide Reagent A; read-out: IC50
pIC50: −log10 of the molar value. Starred links: 1 amine or outer side, 2 acyl side, 3 side chain; linkers in the order of their positions; H or OH if unused. Positions of bridges follow the written chain, without caps; N, C: chain ends. Non-standard residues stand in square brackets, D forms with d. Residues, ends and D or L forms follow the SMILES beside them. Trp(5-F) = N[C@@H](Cc1c[nH]c2ccc(F)cc12)C(=O)O; X30 = COc1ccc(C[C@H](N[*:1])C(=O)[*:2])cc1Cl; X4 = O=C(CCSCc1cccc(CSCCN[*:1])c1)[*:2]; mXylylene = c1cc(C[*:1])cc(C[*:2])c1; X22 = Oc1cc(C[*:1])cc(C[*:2])c1; αMeP = C[C@@]1(C(=O)O)CCCN1; hSer = N[C@@H](CCO)C(=O)O; Mpa = O=C(O)CCS

The following compounds have reported results that may help.
# compound, pIC50
measured = [
    ("COc1ccc(C[C@@H]2NC(=O)[C@@H]3CCCC(=O)N[C@H]4C[C@@H](C(=O)N3)N(C4)C(=O)[C@H](Cc3c[nH]c4ccc(F)cc34)NC(=O)[C@H](Cc3c[nH]c4ccc(F)cc34)NC(=O)[C@@H](C)NC(=O)[C@H](C)NCCSCc3ccc(cc3)CSCCNC(=O)[C@]3(C)CCCN3C2=O)cc1", "4.92 to 6.00"),
    ("COc1ccc(C[C@@H]2NC(=O)[C@H]([C@@H](C)O)NC(=O)[C@@H]3CCCN3C(=O)[C@H](Cc3c[nH]c4ccc(F)cc34)NC(=O)[C@H](Cc3c[nH]c4ccc(F)cc34)NC(=O)[C@@H](C)NC(=O)[C@H](CCCCN)NC(=O)CCSCc3cc(O)cc(c3)CSC[C@@H](C(N)=O)NC(=O)[C@]3(C)CCCN3C2=O)cc1 [Compound 060] ([Mpa]K[dA][Trp(5-F)][Trp(5-F)]PTY(Me)[αMeP]C-NH2; linker 1-10 via X22)", "4.30 to 4.68"),
    ("COc1ccc(C[C@@H]2NC(=O)[C@H](Cc3c[nH]cn3)NC(=O)[C@H](CC(=O)O)NC(=O)[C@H](Cc3c[nH]c4ccc(F)cc34)NC(=O)[C@H](Cc3c[nH]c4ccc(F)cc34)NC(=O)[C@@H](C)NC(=O)[C@H](CCCCN)NC(=O)CCSCc3cccc(c3)CSCCNC(=O)[C@]3(C)CCCN3C2=O)cc1Cl [Compound 386] (cyclo(DH[X30][αMeP][X4]K[dA][Trp(5-F)][Trp(5-F)]))", "6.00 to 7.00"),
]

Now turn to the next compound.
pIC50 reported for this compound C[C@@]12CCCN1C(=O)[C@H](Cc1ccc(O)cc1)NC(=O)[C@H](Cc1cnc[nH]1)NC(=O)[C@H](CC(=O)O)NC(=O)[C@H](Cc1c[nH]c3ccc(F)cc13)NC(=O)[C@H](Cc1c[nH]c3ccc(F)cc13)NC(=O)CNC(=O)[C@H](CCO)NC(=O)CCSCc1cccc(c1)CSC[C@@H](C(N)=O)NC2=O [Compound 376] ([Mpa][hSer]G[Trp(5-F)][Trp(5-F)]DHY[αMeP]C-NH2; linker 1-10 via mXylylene) : 7.00 to 9.96

* * *

// reported pIC50 for each item listed
- test.system: human PCSK9 / human LDLR EGFa domain interaction (Homo sapiens (Human))
- Sequence (Q8NBP7 153-692): as above
- Sequence (Q8NBP7 31-152 partner): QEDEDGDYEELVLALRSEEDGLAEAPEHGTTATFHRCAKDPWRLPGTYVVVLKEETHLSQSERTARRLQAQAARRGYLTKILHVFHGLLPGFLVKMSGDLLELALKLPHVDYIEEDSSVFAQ
- protocol.details: TR-FRET assay of inhibition of the PCSK9-LDLR protein-protein interaction
- Type: binding
- applied.conditions: TR-FRET, 20 nM human PCSK9, 20 nM human LDLR EGFa domain, 2 hours room temperature; read-out: IC50
pIC50: −log10 of the molar value. Starred links: 1 amine or outer side, 2 acyl side, 3 side chain; linkers in the order of their positions; H or OH if unused. Positions of bridges follow the written chain, without caps; N, C: chain ends. Non-standard residues stand in square brackets, D forms with d. Residues, ends and D or L forms follow the SMILES beside them. Trp(5-F) = N[C@@H](Cc1c[nH]c2ccc(F)cc12)C(=O)O; X9 = CS[C@H]1C[C@@H](C(=O)[*:2])N([*:1])C1; X4 = O=C(CCSCc1cccc(CSCCN[*:1])c1)[*:2]; dGly(cPent) = N[C@@H](C(=O)O)C1CCCC1; mXylylene = c1cc(C[*:1])cc(C[*:2])c1; X7 = O=C(Cc1ccc(CN[*:1])cc1)[*:2]; αMeP = C[C@@]1(C(=O)O)CCCN1; Mpa = O=C(O)CCS

Sample records with pIC50:
# molecule, pIC50
rows = [
    ("COc1ccc(C[C@@H]2NC(=O)[C@H](Cc3c[nH]cn3)NC(=O)[C@H](CC(=O)O)NC(=O)[C@H](Cc3c[nH]c4ccc(F)cc34)NC(=O)[C@H](Cc3c[nH]c4ccc(F)cc34)NC(=O)[C@@H](C3CCCC3)NC(=O)[C@H](CCCCN)NC(=O)CCSCc3cccc(c3)CSCCNC(=O)[C@]3(C)CCCN3C2=O)cc1 [Compound 344] (cyclo(DHY(Me)[αMeP][X4]K[dGly(cPent)][Trp(5-F)][Trp(5-F)]))", "4.30 to 4.68"),
    ("CC[C@H](C)[C@@H]1NC(=O)[C@@H]2CCCN2C(=O)[C@H](Cc2c[nH]c3ccc(F)cc23)NC(=O)[C@H](Cc2c[nH]c3ccc(F)cc23)NC(=O)[C@@H](C)NC(=O)[C@H](CCCCN)NC(=O)CCSCc2cccc(c2)CSC[C@@H](C(N)=O)NC(=O)[C@]2(C)CCCN2C(=O)[C@H](Cc2ccc(OC)cc2)NC1=O [Compound 007] ([Mpa]K[dA][Trp(5-F)][Trp(5-F)]PIY(Me)[αMeP]C-NH2; linker 1-10 via mXylylene)", "7.00 to 10.00"),
    ("NCCCC[C@@H]1NC(=O)CCSCc2cccc(c2)CSC[C@@H](C(N)=O)NC(=O)[C@@H]2CCCN2C(=O)[C@H](Cc2ccc(O)cc2)NC(=O)[C@@H](Cc2cnc[nH]2)NC(=O)[C@H](CC(=O)O)NC(=O)[C@H](Cc2c[nH]c3ccc(F)cc23)NC(=O)[C@H](Cc2c[nH]c3ccc(F)cc23)NC(=O)CNC1=O [Compound 163] ([Mpa]KG[Trp(5-F)][Trp(5-F)]D[dH]YPC-NH2; linker 1-10 via mXylylene)", "4.30 to 4.68"),
    ("COc1ccc(C[C@@H]2NC(=O)[C@H](Cc3cnc[nH]3)NC(=O)[C@H](CC(=O)O)NC(=O)[C@H](Cc3c[nH]c4ccc(F)cc34)NC(=O)[C@H](Cc3c[nH]c4ccc(F)cc34)NC(=O)[C@@H](C)NC(=O)Cc3ccc(cc3)CNC(=O)C[C@@H](C(N)=O)NC(=O)[C@]3(C)CCCN3C2=O)cc1 [Compound 403] ([X7][dA][Trp(5-F)][Trp(5-F)]DHY(Me)[αMeP]D-NH2; lactam N-9)", "6.00 to 7.00"),
]

Let us examine a further case.
// recorded pIC50 for CS[C@H]1C[C@H]2C(=O)N[C@H](C(N)=O)CSCc3cccc(c3)CSCCC(=O)N[C@@H](CCCCN)C(=O)NCC(=O)N[C@@H](Cc3c[nH]c4ccc(F)cc34)C(=O)N[C@@H](Cc3c[nH]c4ccc(F)cc34)C(=O)N[C@@H](CC(=O)O)C(=O)N[C@@H](Cc3cnc[nH]3)C(=O)N[C@@H](Cc3ccc(O)cc3)C(=O)N2C1 [Compound 363] ([Mpa]KG[Trp(5-F)][Trp(5-F)]DHY[X9]C-NH2; linker 1-10 via mXylylene) : 7.00 to 10.00

* * *

- test.system: PCSK9 (Homo sapiens (Human), UniProt Q8NBP7)
- protocol.details: PCSK9 Alexa FRET Standard assay (displacement of AlexaFluor647 tagged cyclic peptide Reagent A)
- Type: binding
- applied.conditions: PCSK9 Alexa FRET Standard assay, 0.5 nM PCSK9, 20 nM AF cyclic peptide Reagent A; read-out: IC50
pIC50: −log10 of the molar value. Starred links: 1 amine or outer side, 2 acyl side, 3 side chain; linkers in the order of their positions; H or OH if unused. Positions of bridges follow the written chain, without caps; N, C: chain ends. Non-standard residues stand in square brackets, D forms with d. Residues, ends and D or L forms follow the SMILES beside them. 2Furoyl(5-aminomethyl) = O=C(c1ccc(CN[*:1])o1)[*:2]; Nle(6-ylidene) = O=C([C@H](CCCC=[*:3])N[*:1])[*:2]; X25 = O=C([C@H](Cc1cccc(OCC=[*:3])c1)N[*:1])[*:2]; Trp(5-F) = N[C@@H](Cc1c[nH]c2ccc(F)cc12)C(=O)O; Isophthaloyl = O=C(c1cccc(C(=O)[*:2])c1)[*:1]; Phe(4-CH2NH2) = NCc1ccc(C[C@H](N)C(=O)O)cc1; Pro(cis-4-F) = O=C(O)[C@@H]1C[C@H](F)CN1; Pro(4S-NH2) = N[C@@H]1CN[C@H](C(=O)O)C1; X4 = O=C(CCSCc1cccc(CSCCN[*:1])c1)[*:2]; Orn(N3) = [N-]=[N+]=NCCC[C@H](N)C(=O)O; mXylylene = c1cc(C[*:1])cc(C[*:2])c1; X47 = O=C(O)CCCCC(N[*:1])C(=O)[*:2]; X39 = c1cc(CCSCN[*:2])cc(C[*:1])c1; Asu = N[C@@H](CCCCCC(=O)O)C(=O)O; aThr = C[C@H](O)[C@H](N)C(=O)O; αMeP = C[C@@]1(C(=O)O)CCCN1; Orn = NCCC[C@H](N)C(=O)O; Dab = NCC[C@H](N)C(=O)O; Mpa = O=C(O)CCS
Form field: pIC50 (one value per entry).

Recorded pIC50, per entry:
# molecule, pIC50
rows = [
    ("COc1ccc(C[C@@H]2NC(=O)C(CCCCC(=O)O)NC(=O)[C@@H]3C[C@H](N)CN3C(=O)[C@H](Cc3c[nH]c4ccc(F)cc34)NC(=O)[C@H](Cc3c[nH]c4ccc(F)cc34)NC(=O)[C@@H](C)NC(=O)[C@H](CCCN=[N+]=[N-])NC(=O)CCSCc3cccc(c3)CCSCNC(=O)[C@]3(C)CCCN3C2=O)cc1 (stereo partly drawn) [Compound 388] ([Mpa][Orn(N3)][dA][Trp(5-F)][Trp(5-F)][Pro(4S-NH2)][X47]Y(Me)[αMeP]; linker 1-C via X39)", "6.00 to 7.00"),
    ("COc1ccc(C[C@@H]2NC(=O)[C@H]([C@@H](C)O)NC(=O)[C@@H]3CCC/C=C/COc4cccc(c4)C[C@H](NC(=O)[C@@H](C)NC(=O)[C@H](CCCCN)NC(=O)CCSCc4cccc(c4)CSCCNC(=O)[C@]4(C)CCCN4C2=O)C(=O)N[C@@H](Cc2c[nH]c4ccc(F)cc24)C(=O)N3)cc1 [Compound 494] (cyclo(K[dA][X25][Trp(5-F)][Nle(6-ylidene)]TY(Me)[αMeP][X4]); staple (E) 3-5)", "4.92 to 6.00"),
    ("COc1ccc(C[C@@H]2NC(=O)[C@H]([C@@H](C)O)NC(=O)[C@@H]3C[C@H](F)CN3C(=O)[C@H](Cc3c[nH]c4ccc(F)cc34)NC(=O)[C@H](Cc3c[nH]c4ccc(F)cc34)NC(=O)[C@@H](C)NC(=O)[C@H](CCCCN)NC(=O)[C@@H](NC(C)=O)CC(=O)NCc3ccc(cc3)C[C@@H](C(N)=O)NC(=O)[C@]3(C)CCCN3C2=O)cc1 [Compound 066] (Ac-DK[dA][Trp(5-F)][Trp(5-F)][Pro(cis-4-F)]TY(Me)[αMeP][Phe(4-CH2NH2)]-NH2; lactam 1-10)", "7.00 to 9.96"),
    ("COc1ccc(C[C@@H]2NC(=O)[C@H]([C@H](C)O)NC(=O)[C@@H]3C[C@H](F)CN3C(=O)[C@H](Cc3c[nH]c4ccc(F)cc34)NC(=O)[C@H](Cc3c[nH]c4ccc(F)cc34)NC(=O)[C@@H](C)NC(=O)[C@H](C)NC(=O)[C@@H](NC(C)=O)CCNC(=O)c3cccc(c3)C(=O)NCCC[C@@H](C(N)=O)NC(=O)[C@]3(C)CCCN3C2=O)cc1 [Compound 134] (Ac-[Dab]A[dA][Trp(5-F)][Trp(5-F)][Pro(cis-4-F)][aThr]Y(Me)[αMeP][Orn]-NH2; linker 1-10 via Isophthaloyl)", "4.30 to 4.68"),
    ("C[C@H]1NC(=O)[C@H](CCCCN)NC(=O)CCSCc2cccc(c2)CSC[C@@H](C(N)=O)NC(=O)[C@]2(C)CCCN2C(=O)[C@H](Cc2ccc(O)cc2)NC(=O)C2=CC=C(CNC(=O)[C@H](Cc3c[nH]c4ccc(F)cc34)NC(=O)[C@H](Cc3c[nH]c4ccc(F)cc34)NC1=O)O2 [Compound 429] ([Mpa]K[dA][Trp(5-F)][Trp(5-F)][2Furoyl(5-aminomethyl)]Y[αMeP]C-NH2; linker 1-9 via mXylylene)", "6.00 to 7.00"),
]

# ---- query molecule ----
Fill in: PCSK9 (Homo sapiens (Human), UniProt Q8NBP7) pIC50 for COc1ccc(C[C@@H]2NC(=O)[C@H](Cc3cnc[nH]3)NC(=O)[C@H](CC(=O)O)NC(=O)[C@H](Cc3c[nH]c4ccc(F)cc34)NC(=O)[C@H](Cc3c[nH]c4ccc(F)cc34)NC(=O)[C@@H](C)NC(=O)[C@H](CCCCCC(=O)O)NC(=O)CCSCc3cccc(c3)CSCCNC(=O)[C@]3(C)CCCN3C2=O)cc1 [Compound 426] (cyclo([Asu][dA][Trp(5-F)][Trp(5-F)]DHY(Me)[αMeP][X4])) = 4.92 to 6.00
